In this section we review reported IC50 values for a set of molecules.
# Tested on: OVCAR-3
# method: Antiproliferative activity against human OVCAR3 cells after 24 hrs by MTT assay
# Format: functional, cell-based
# cond: Homo sapiens, OVCAR-3, 24 h; read-out: IC50

Cc1cc(-c2nnc(/C=C/c3ccccc3)o2)c2[nH]c(=O)c3ccccc3c(=O)c2c1: 17.7 µM

Problem: Which IC50 is reported for this molecule? `COc1ccccc1/C=C/c1nnc(-c2cc(C)cc3c(=O)c4ccccc4c(=O)[nH]c23)o1`
Result: 10.7 µM

Problem: Which IC50 is reported for this molecule? `COc1ccc(Cl)cc1/C=C/c1nnc(-c2cccc3c(=O)c4ccccc4c(=O)[nH]c23)o1`
Result: > 100 µM

Problem: Which IC50 is reported for this molecule? `COc1ccc(F)cc1/C=C/c1nnc(-c2cc(C)cc3c(=O)c4ccccc4c(=O)[nH]c23)o1`
Result: > 100 µM

Problem: Which IC50 is reported for this molecule? `Cc1cc(-c2nnc(-c3ccccc3Cl)o2)c2[nH]c(=O)c3ccccc3c(=O)c2c1`
Result: 4.19 µM

Problem: Which IC50 is reported for this molecule? `O=c1[nH]c2c(-c3nnc(COc4ccccc4)o3)cccc2c(=O)c2ccccc12`
Result: 6.28 µM

###

# Test system: OVCAR-3
# method: Antiproliferative activity against human OVCAR3 cells after 24 hrs by MTT assay
# Format: functional, cell-based
# cond: Homo sapiens, OVCAR-3, 24 h; read-out: IC50
In this section we review reported IC50 values for a set of molecules.

Cc1cc(-c2nnc(CNC(=O)c3ccccc3)o2)c2[nH]c(=O)c3ccccc3c(=O)c2c1: 11.4 µM
COc1c(Br)cc(Br)cc1/C=C/c1nnc(-c2cccc3c(=O)c4ccccc4c(=O)[nH]c23)o1: 1.4 µM
COc1ccccc1/C=C/c1nnc(-c2cccc3c(=O)c4ccccc4c(=O)[nH]c23)o1: 8.99 µM
COc1ccc(Br)cc1/C=C/c1nnc(-c2cccc3c(=O)c4ccccc4c(=O)[nH]c23)o1: 1.66 µM
O=C(NCc1nnc(-c2cccc3c(=O)c4ccccc4c(=O)[nH]c23)o1)c1ccccc1Cl: > 100 µM

Problem: Which IC50 is reported for this molecule? `O=c1[nH]c2c(-c3nnc(/C=C/c4ccccc4)o3)cccc2c(=O)c2ccccc12`
Result: 12.1 µM

Problem: Which IC50 is reported for this molecule? `Cc1cc(-c2nnc(-c3ccccc3)o2)c2[nH]c(=O)c3ccccc3c(=O)c2c1`
Result: 10.1 µM

###

# System: OVCAR-3
# method: Antiproliferative activity against human OVCAR3 cells after 24 hrs by MTT assay
# Format: functional, cell-based
# cond: Homo sapiens, OVCAR-3, 24 h; read-out: IC50
pIC50: −log10 of the molar value.
observed.property: pIC50

// below: answered molecules
O=c1[nH]c2c(-c3nnc(-c4ccccc4)o3)cccc2c(=O)c2ccccc12: < 4.00
CNCc1ccc(-c2[nH]c3cc(F)cc4c3c2CCNC4=O)cc1 [RUCAPARIB]: 5.48
COc1ccc(Cl)cc1/C=C/c1nnc(-c2cc(C)cc3c(=O)c4ccccc4c(=O)[nH]c23)o1: < 4.00

Problem: # returns recorded pIC50 (system: OVCAR-3) for `O=C(NCc1nnc(-c2cccc3c(=O)c4ccccc4c(=O)[nH]c23)o1)c1ccccc1`
Result: < 4.00

Problem: # returns recorded pIC50 (system: OVCAR-3) for `COc1ccc(F)cc1/C=C/c1nnc(-c2cccc3c(=O)c4ccccc4c(=O)[nH]c23)o1`
Result: < 4.00

Problem: # returns recorded pIC50 (system: OVCAR-3) for `O=c1[nH]c2c(-c3nnc(-c4ccccc4Cl)o3)cccc2c(=O)c2ccccc12`
Result: < 4.00
